// data source = patent US9540397B2

- measurement-target: BACE1 (Homo sapiens, UniProt P56817)
- Construct: endogenous in cells
- Sequence (P56817 46-501): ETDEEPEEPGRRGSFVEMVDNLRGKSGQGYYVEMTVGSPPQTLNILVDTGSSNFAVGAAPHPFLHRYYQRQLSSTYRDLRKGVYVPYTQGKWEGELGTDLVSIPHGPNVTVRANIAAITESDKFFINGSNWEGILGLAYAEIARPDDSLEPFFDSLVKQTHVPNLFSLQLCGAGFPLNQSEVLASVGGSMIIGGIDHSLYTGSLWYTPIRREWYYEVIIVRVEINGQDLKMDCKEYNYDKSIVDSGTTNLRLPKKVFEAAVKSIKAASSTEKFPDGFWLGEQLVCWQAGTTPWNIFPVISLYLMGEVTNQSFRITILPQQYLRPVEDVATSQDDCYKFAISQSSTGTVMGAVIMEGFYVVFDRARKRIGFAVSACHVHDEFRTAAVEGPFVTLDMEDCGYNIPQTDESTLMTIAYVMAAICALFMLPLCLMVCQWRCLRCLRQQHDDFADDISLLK
- method-description: Cellular Aβ-lowering assay (Abeta 40 AlphaLISA, HEK293 APP cells)
- cond: 18-20 hrs incubation, Aβ40 in culture supernatant, read-out: BACE1 cell act. Aβ40 IC50
property-measured: IC50

Answered examples (2):
COc1cnc(C(=O)Nc2ccc(F)c([C@@]3(C)N=C(N)C(C)(C)[S@@]4(=O)=NCCC[C@H]34)n2)cn1 [Example 2AA] | 19.7 nM
CC1(C)C(N)=N[C@](C)(c2nc(NC(=O)c3nn(C(F)F)cc3Cl)ccc2F)[C@@H]2CCN=[S@@]21=O [Example 51AB] | < 10 nM

We next turn to a different compound, shown below.
Report IC50 for CC1(C)C(N)=N[C@](C)(c2nc(NC(=O)c3ccc(C(=O)O)cn3)ccc2F)[C@H]2CC(F)(F)CN=[S@@]21=O [Example 44AA] please. > 40 nM
